Molecular target: RET (658-1114) (Homo sapiens, UniProt P07949)
Construct: 658-1114; expressed in transfected cells; host or cells: 293T.144 (293T cells, generated in-house)
Sequence (P07949 658-1114): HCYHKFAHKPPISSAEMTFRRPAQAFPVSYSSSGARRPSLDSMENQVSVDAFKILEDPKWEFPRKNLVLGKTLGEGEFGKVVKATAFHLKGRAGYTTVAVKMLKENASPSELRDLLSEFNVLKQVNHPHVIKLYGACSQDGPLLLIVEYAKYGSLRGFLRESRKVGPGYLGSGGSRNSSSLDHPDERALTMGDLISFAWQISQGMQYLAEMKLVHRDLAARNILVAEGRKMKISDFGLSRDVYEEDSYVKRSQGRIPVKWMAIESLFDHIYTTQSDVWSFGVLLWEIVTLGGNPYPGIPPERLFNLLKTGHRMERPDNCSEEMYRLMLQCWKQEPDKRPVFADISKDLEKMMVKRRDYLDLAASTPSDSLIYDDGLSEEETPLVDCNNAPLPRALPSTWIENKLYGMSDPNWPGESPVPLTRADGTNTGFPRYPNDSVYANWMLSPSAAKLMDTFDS
Assay: HiBiT-Degradation, RET wild-type degradation assay (Nano-Glo HiBiT Lytic), 293T.144 cells
Type: cell-based
Settings: 6.0 hours, % remaining protein, read-out: 293T.144 RET (658-1114) 6.0 hours (Emax)
Quick reference for Emax among some compounds

>  <COMPOUND>
CCC1(C(=O)NC(C)C)CCN(c2ccc(-c3cc(-c4cnn(C5CC6(C5)CN(C5CCN(c7ccc(NC8CCC(=O)NC8=O)cc7F)CC5)C6)c4)cn4ncc(C#N)c34)cn2)CC1 (stereo not drawn) [Compound 199]

>  <Emax>
< 30%

$$$$
>  <COMPOUND>
CCC1(C(=O)NC2CCC2)CCN(c2ccc(-c3nc(-c4cnn([C@H]5C[C@](F)(CN6CCN(c7ccc(N[C@H]8CCC(=O)NC8=O)cc7F)CC6)C5)c4)cn4ncc(C#N)c34)cn2)CC1 [Compound 186]

>  <Emax>
< 50%

$$$$
>  <COMPOUND>
CCC1(C(=O)NC2CCC2)CCN(c2ccc(-c3nc(-c4cnn([C@H]5C[C@](F)(CN6CCN(c7ccc(N[C@@H]8CCC(=O)NC8=O)cc7F)CC6)C5)c4)cn4ncc(C#N)c34)cn2)CC1 [Compound 187]

>  <Emax>
< 30%

$$$$
>  <COMPOUND>
CC(C)Oc1ccc(CN2[C@@H]3COC[C@H]2CN(c2ccc(-c4nc(-c5cnn([C@H]6CC[C@H](N7CCN(c8c(F)cc(NC9CCC(=O)NC9=O)cc8F)CC7)CC6)c5)cn5ncc(C#N)c45)cn2)C3)cn1 (mixture of isomers) [Compound 213]

>  <Emax>
< 30%

$$$$
>  <COMPOUND>
CCC1(C(=O)NC(C)C)CCN(c2ccc(-c3nc(-c4cnn(C5CCN(C(=O)CC6(O)CCN(c7cc(OC)c(NC8CCC(=O)NC8=O)cc7F)CC6)CC5)c4)cn4ncc(C#N)c34)cn2)CC1 (stereo not drawn) [Compound 91]

>  <Emax>
< 30%

$$$$
>  <COMPOUND>
CCC1(c2ncccn2)CCN(c2ccc(-c3nc(-c4cnn(C5CCN(C(=O)CC6(O)CCN(c7ccc(NC8CCC(=O)NC8=O)cc7F)CC6)CC5)c4)cn4ncc(C#N)c34)cn2)CC1 (stereo not drawn) [Compound 105]

>  <Emax>
< 30%

$$$$
>  <COMPOUND>
CCC1(C(=O)NC(C)C)CCN(c2ccc(-c3nc(-c4cnn(C5CCN(C(=O)CC6(O)CCN(c7ccc(NC8CCC(=O)NC8=O)cc7F)CC6)CC5)c4)cn4ncc(C#N)c34)cc2)CC1 (stereo not drawn) [Compound 121]

>  <Emax>
< 30%

$$$$
>  <COMPOUND>
CCC1(C(=O)NC(C)C)CCN(c2ccc(-c3nc(-c4cnn(C5CC6(C5)CN(C(=O)CC5(O)CCN(c7ccc(NC8CCC(=O)NC8=O)cc7F)CC5)C6)c4)cn4ncc(C#N)c34)cn2)CC1 (stereo not drawn) [Compound 183]

>  <Emax>
< 30%

$$$$
>  <COMPOUND>
COc1ccc(NC2CCN(c3ccc(-c4nc(-c5cnn([C@H]6CC[C@@H](N7CCN(c8c(F)cc(NC9CCC(=O)NC9=O)cc8F)CC7)CC6)c5)cn5ncc(C#N)c45)cn3)CC2)cn1 (single isomer, unassigned) [Compound 203]

>  <Emax>
< 30%

$$$$

----------
Biological target: RET (658-1114) (Homo sapiens, UniProt P07949)
Construct: 658-1114; expressed in transfected cells; host or cells: 293T.144 (293T cells, generated in-house)
Experiment: HiBiT-Degradation, RET wild-type degradation assay (Nano-Glo HiBiT Lytic), 293T.144 cells
Type: cell-based
Conditions: RET wild-type, 6.0 hours, read-out: HiBiT-Degradation 293T.144 RET (658-1114) 6.0 hours (DC50)
Method: Dulbecco's modified Eagle medium (DMEM) no-phenol red media and fetal bovine serum (FBS) were purchased from Gibco (Grand Island, NY, USA). […] RET wild-type (WT) and G810R degradation were assessed using the Nano-Glo® HiBiT Lytic assay (Promega, Medison, WI, USA). […] Luminescence signal was measured using an EnVision™ Multimode plate reader (Perkin Elmer, Santa Clara, CA, USA). […]
Quick reference for DC50 among some compounds
PROPERTY MEASURED: DC50

>  <COMPOUND>
CN(Cc1ccc(-c2cn3ncc(C#N)c3c(-c3ccc(N4CCN(Cc5ccccn5)CC4)nc3)n2)cc1)C(=O)CN1CCC(c2ccc(NC3CCC(=O)NC3=O)cc2)CC1 (stereo not drawn)

>  <RECORDED VALUE>
< 50 nM

$$$$
>  <COMPOUND>
N#Cc1cnn2cc(-c3cnn(C4CCN(C(=O)CN5CCC(c6ccc(NC7CCC(=O)NC7=O)cc6F)CC5)CC4)c3)nc(-c3ccc(N4CCC(Cc5ccccn5)CC4)nc3)c12 (stereo not drawn)

>  <RECORDED VALUE>
< 50 nM

$$$$
>  <COMPOUND>
N#Cc1cnn2cc(-c3cnn(C4CCN(C(=O)CN5CCC(c6ccc(NC7CCC(=O)NC7=O)cc6F)CC5)CC4)c3)cc(-c3ccc(N4CC5CC(C4)N5Cc4cccnc4)nc3)c12 (stereo not drawn)

>  <RECORDED VALUE>
< 50 nM

$$$$

----------
Biological target: RET(KD: 658-1114 G810R) (Homo sapiens, UniProt P07949, G810R)
Construct: 658-1114; expressed in transfected cells; host or cells: 293T.165 (293T cells, generated in-house)
Sequence (P07949 658-1114 G810R): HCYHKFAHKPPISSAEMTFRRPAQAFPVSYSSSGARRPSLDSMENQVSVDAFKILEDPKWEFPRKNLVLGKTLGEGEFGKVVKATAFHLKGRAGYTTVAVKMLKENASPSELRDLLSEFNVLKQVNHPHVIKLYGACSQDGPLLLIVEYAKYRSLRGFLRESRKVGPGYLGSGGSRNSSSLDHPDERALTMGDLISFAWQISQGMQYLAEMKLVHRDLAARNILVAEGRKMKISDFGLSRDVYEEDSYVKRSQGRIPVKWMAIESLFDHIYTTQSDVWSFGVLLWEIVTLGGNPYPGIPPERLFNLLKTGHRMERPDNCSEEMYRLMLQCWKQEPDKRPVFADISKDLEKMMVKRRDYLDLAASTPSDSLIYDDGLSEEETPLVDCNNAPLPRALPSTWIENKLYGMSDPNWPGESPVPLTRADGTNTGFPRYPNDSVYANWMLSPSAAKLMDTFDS
Experiment: HiBiT-Degradation, RET G810R degradation assay (Nano-Glo HiBiT Lytic), 293T.165 cells
Assay type: cell-based
Conditions: 6.0 hours, % remaining protein, read-out: 293T.165 RET(KD: 658-1114 G810R) 6.0 hours (Emax)

>  <COMPOUND>
CCC1(C(=O)NC2CCC2)CCN(c2ccc(-c3nc(-c4cnn([C@H]5CC[C@H](N6CCN(c7cc(OC)c(N[C@@H]8CCC(=O)NC8=O)cc7F)CC6)CC5)c4)cn4ncc(C#N)c34)cn2)CC1 (single isomer, unassigned)

>  <TGT>
RET(KD: 658-1114 G810R) (Homo sapiens, UniProt P07949, G810R)

>  <Emax>
< 30%

$$$$
>  <COMPOUND>
COc1cc(N2CCN([C@H]3CC[C@H](n4cc(-c5cn6ncc(C#N)c6c(-c6ccc(N7C[C@H]8COC[C@@H](C7)N8CC7CCOCC7)nc6)n5)cn4)CC3)CC2)c(F)cc1NC1CCC(=O)NC1=O (single isomer, unassigned)

>  <TGT>
RET(KD: 658-1114 G810R) (Homo sapiens, UniProt P07949, G810R)

>  <Emax>
< 30%

$$$$

----------
Target: RET(KD: 658-1114 G810R) (Homo sapiens, UniProt P07949, G810R)
Construct: 658-1114; expressed in transfected cells; host or cells: 293T.165 (293T cells, generated in-house)
Assay: HiBiT-Degradation, RET G810R degradation assay (Nano-Glo HiBiT Lytic), 293T.165 cells
Type: cell-based
PROPERTY MEASURED: 293T.165 RET(KD: 658-1114 G810R) 6.0 hours (IP) [nM]

>  <MOLECULE>
N#Cc1cnn2cc(-c3cnn([C@H]4CC[C@H](N5CCC(c6ccc(NC7CCC(=O)NC7=O)cc6F)CC5)CC4)c3)nc(-c3ccc(N4CCC5(CC4)OCc4cccnc45)nc3)c12 (single isomer, unassigned)

>  <RECORDED VALUE>
++++ (<50 nM = ++++)

$$$$
>  <MOLECULE>
COc1ccc(CN2[C@@H]3COC[C@H]2CN(c2ccc(-c4nc(-c5cnn([C@H]6CC[C@@H](N7CCN(c8cc9c(cc8F)c(N8CCC(=O)NC8=O)nn9C)CC7)CC6)c5)cn5ncc(C#N)c45)cn2)C3)cn1 (single isomer, unassigned)

>  <RECORDED VALUE>
++++ (<50 nM = ++++)

$$$$
>  <MOLECULE>
CCC1(NC(=O)C(C)C)CCN(c2ccc(-c3nc(-c4cnn([C@H]5CC[C@@H](N6CCN(c7ccc8c(N9CCC(=O)NC9=O)nn(C)c8c7F)CC6)CC5)c4)cn4ncc(C#N)c34)cn2)CC1 (single isomer, unassigned)

>  <RECORDED VALUE>
++++ (<50 nM = ++++)

$$$$
>  <MOLECULE>
CCC1(C(=O)Nc2ccccc2)CCN(c2ccc(-c3nc(-c4cnn(C5CCN(C(=O)CC6(O)CCN(c7ccc(NC8CCC(=O)NC8=O)cc7F)CC6)CC5)c4)cn4ncc(C#N)c34)cn2)CC1 (stereo not drawn)

>  <RECORDED VALUE>
++++ (<50 nM = ++++)

$$$$
>  <MOLECULE>
CCC1(C(=O)NC(C)C)CCN(c2ccc(-c3nc(-c4cnn(C5CC6(C5)CN(C(=O)CC5(O)CCN(c7ccc(NC8CCC(=O)NC8=O)cc7F)CC5)C6)c4)cn4ncc(C#N)c34)cn2)CC1 (stereo not drawn)

>  <RECORDED VALUE>
++++ (<50 nM = ++++)

$$$$
>  <MOLECULE>
CCC1(C(=O)NC2CCCC2)CCN(c2ccc(-c3nc(-c4cnn([C@H]5CC[C@H](N6CCC(c7ccc(N[C@H]8CCC(=O)NC8=O)cc7F)CC6)CC5)c4)cn4ncc(C#N)c34)cn2)CC1

>  <RECORDED VALUE>
++++ (<50 nM = ++++)

$$$$
>  <MOLECULE>
CCC1(C(=O)NC(C)(C)C)CCN(c2ccc(-c3nc(-c4cnn([C@H]5CC[C@H](N6CCN(c7c(F)cc(N[C@@H]8CCC(=O)NC8=O)cc7F)CC6)CC5)c4)cn4ncc(C#N)c34)cn2)CC1 (racemic)

>  <RECORDED VALUE>
+++ (<100 nM = +++)

$$$$
>  <MOLECULE>
COc1cc(N2CCN([C@H]3CC[C@H](n4cc(-c5cn6ncc(C#N)c6c(-c6ccc(N7C[C@H]8COC[C@@H](C7)N8CC7CCOCC7)nc6)n5)cn4)CC3)CC2)c(F)cc1NC1CCC(=O)NC1=O (single isomer, unassigned)

>  <RECORDED VALUE>
++++ (<50 nM = ++++)

$$$$
>  <MOLECULE>
CCOc1ccc(CN2[C@@H]3COC[C@H]2CN(c2ccc(-c4nc(-c5cnn([C@H]6CC[C@H](N7CCN(c8c(F)cc(NC9CCC(=O)NC9=O)cc8F)CC7)CC6)c5)cn5ncc(C#N)c45)cn2)C3)cn1 (mixture of isomers)

>  <RECORDED VALUE>
+++ (<100 nM = +++)

$$$$
